# SYSTEM UNDER TEST: Angiotensin-converting enzyme (Rattus norvegicus, UniProt P47820)
# Sequence (P47820 whole entry): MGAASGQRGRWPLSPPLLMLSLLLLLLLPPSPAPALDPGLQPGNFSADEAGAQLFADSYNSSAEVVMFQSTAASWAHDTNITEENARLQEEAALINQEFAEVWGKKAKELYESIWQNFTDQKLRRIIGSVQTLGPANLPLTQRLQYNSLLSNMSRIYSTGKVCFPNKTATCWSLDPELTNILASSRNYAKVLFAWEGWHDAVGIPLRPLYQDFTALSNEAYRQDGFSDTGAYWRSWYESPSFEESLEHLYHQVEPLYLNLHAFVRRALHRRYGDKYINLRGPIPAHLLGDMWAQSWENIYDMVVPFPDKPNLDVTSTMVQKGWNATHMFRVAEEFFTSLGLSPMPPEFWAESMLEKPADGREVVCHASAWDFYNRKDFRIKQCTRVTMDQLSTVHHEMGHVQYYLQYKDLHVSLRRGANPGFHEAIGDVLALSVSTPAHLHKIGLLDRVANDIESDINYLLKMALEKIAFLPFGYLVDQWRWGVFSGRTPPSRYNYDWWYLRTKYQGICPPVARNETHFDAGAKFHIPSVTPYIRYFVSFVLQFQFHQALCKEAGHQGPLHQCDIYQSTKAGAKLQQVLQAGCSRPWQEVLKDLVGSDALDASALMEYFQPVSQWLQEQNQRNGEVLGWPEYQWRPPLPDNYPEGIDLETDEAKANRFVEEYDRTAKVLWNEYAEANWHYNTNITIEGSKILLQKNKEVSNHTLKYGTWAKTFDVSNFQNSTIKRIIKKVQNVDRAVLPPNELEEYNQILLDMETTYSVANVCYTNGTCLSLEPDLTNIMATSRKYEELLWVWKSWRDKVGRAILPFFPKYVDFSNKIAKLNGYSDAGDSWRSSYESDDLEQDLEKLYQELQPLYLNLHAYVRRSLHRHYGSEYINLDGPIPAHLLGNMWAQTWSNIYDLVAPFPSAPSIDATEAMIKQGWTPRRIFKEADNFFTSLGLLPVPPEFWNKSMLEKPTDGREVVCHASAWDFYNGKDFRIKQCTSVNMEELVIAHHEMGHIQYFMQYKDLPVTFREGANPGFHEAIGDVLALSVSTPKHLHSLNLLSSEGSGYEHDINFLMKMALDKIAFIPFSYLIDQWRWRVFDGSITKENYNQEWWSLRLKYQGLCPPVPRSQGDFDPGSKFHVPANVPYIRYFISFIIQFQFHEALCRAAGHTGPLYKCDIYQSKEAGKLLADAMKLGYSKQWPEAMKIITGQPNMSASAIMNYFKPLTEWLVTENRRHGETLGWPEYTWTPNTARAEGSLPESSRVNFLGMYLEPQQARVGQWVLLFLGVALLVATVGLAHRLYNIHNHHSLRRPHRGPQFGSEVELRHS
# TEST NAME: In vitro inhibitory activity against rat serum angiotensin I converting enzyme using hippuryl-glycyl-glycine as substrate
Recorded IC50 by entry
Enter your answer as a number in nM; do not include the unit.

Observe how each entry below is paired with its result.
>>> measured("CN(CC(=O)NO)C(=O)C1CCCCC1C(=O)O (stereo in doubt; 21a)")
7
>>> measured("O=C(O)C1CCCCC1C(=O)CCS (stereo not drawn)")
1400
>>> measured("CCN(CC(=O)O)C(=O)C1CCCCC1C(=O)O (stereo in doubt; 7d)")
75000
>>> measured("O=C(O)C1CCCCC1C(=O)CCS (trans isomer)")
1700
>>> measured("CN(CC(=O)NO)C(=O)C1CCCCC1C(=O)O (stereo in doubt; 16a)")
23500

Task: Give Angiotensin-converting enzyme (Rattus norvegicus, UniProt P47820) IC50 for CN(CC(=O)NO)C(=O)C1CCCCC1C(=O)O (cis isomer)
Result: 12

Task: Give Angiotensin-converting enzyme (Rattus norvegicus, UniProt P47820) IC50 for CCCN(CC(=O)NO)C(=O)C1CCCCC1C(=O)O (trans isomer)
Result: 150

Task: Give Angiotensin-converting enzyme (Rattus norvegicus, UniProt P47820) IC50 for CCN(CC(=O)O)C(=O)C1CCCCC1C(=O)O (stereo in doubt; 7e)
Result: 97000

Task: Give Angiotensin-converting enzyme (Rattus norvegicus, UniProt P47820) IC50 for O=C(O)CCC(=O)N1CCCC1C(=O)O (stereo not drawn)
Result: 624000

Task: Give Angiotensin-converting enzyme (Rattus norvegicus, UniProt P47820) IC50 for CN(CC(=O)NO)C(=O)C1CCCC1C(=O)O (stereo not drawn)
Result: 1400

Task: Give Angiotensin-converting enzyme (Rattus norvegicus, UniProt P47820) IC50 for CC(C)N(CC(=O)NO)C(=O)C1CCCCC1C(=O)O (trans isomer)
Result: 500

Task: Give Angiotensin-converting enzyme (Rattus norvegicus, UniProt P47820) IC50 for CN(CC(=O)NO)C(=O)C1CCCCC1C(=O)O (trans isomer)
Result: 45

Task: Give Angiotensin-converting enzyme (Rattus norvegicus, UniProt P47820) IC50 for O=C(CNC(=O)C1CCCCC1C(=O)O)NO (cis isomer)
Result: 3000

Task: Give Angiotensin-converting enzyme (Rattus norvegicus, UniProt P47820) IC50 for CCN(CC(=O)NO)C(=O)C1CCCCC1C(=O)O (stereo in doubt; 10g)
Result: 18

Task: Give Angiotensin-converting enzyme (Rattus norvegicus, UniProt P47820) IC50 for CCN(CC(=O)NO)C(=O)C1CCCCC1C(=O)O (stereo in doubt; 16c)
Result: 2900

Hello, the source for this data is ChEMBL document CHEMBL1126616, in case you need it.
